- System: 695427-040-R-J1-PDC complex spheroid viability;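 also: spheroids exposed to compounds for seven days; 100% = DMSO vehicle control viability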
- Measurement Description: Anticancer human tumor 695427-040-R-J1-PDC patient-derived colon adenocarcinoma cell line growth inhibition [POLQ]
- Test Parameters: second compound 0.316 µM; first compound 0.1 µM; hits give low values
I'd be grateful if you could share measured viability, T/C for these entries.
Numbers only, in %.

Batch request: viability, T/C per item, same order as input.
1. C=CC(=O)N1CCN(c2nc(=O)n(-c3c(C)ccnc3C(C)C)c3nc(-c4c(O)cccc4F)c(F)cc23)C(C)C1 (stereo unspecified) + COC1C(OC(N)=O)C(O)C(Oc2ccc3c(O)c(NC(=O)c4ccc(O)c(CC=C(C)C)c4)c(=O)oc3c2C)OC1(C)C
2. COc1ccc([C@@H](O)c2cc(-c3ncnc4cc(N5CCOCC5)ccc34)c(F)cc2Cl)nn1 + Nc1ccc(C#CCN(C(=O)Cc2ncc(C(F)(F)F)cc2C(F)(F)F)c2ccc(F)cc2)nn1
3. CCc1cc2c(N3CCc4c(cc(Cn5ccnc5)cc4-c4cn(C)nc4C(F)(F)F)C3=O)ccnc2c(OC)n1 + Cc1cccc(N(C)C(=O)C2C(O)CCN2c2nc(C)cc(C(F)(F)F)c2C#N)c1
4. CCCS(=O)(=O)Nc1ccc(F)c(C(=O)c2c[nH]c3ncc(-c4ccc(Cl)cc4)cc23)c1F + Cc1cccc(N(C)C(=O)C2C(O)CCN2c2nc(C)cc(C(F)(F)F)c2C#N)c1
5. CC1COCCN1c1cc(C2(S(C)(=N)=O)CC2)nc(-c2ccnc3[nH]ccc23)n1 (stereo unspecified) + Cc1cccc(N(C)C(=O)C2C(O)CCN2c2nc(C)cc(C(F)(F)F)c2C#N)c1
6. C=CC(=O)N1CCN(c2nc(=O)n(-c3c(C)ccnc3C(C)C)c3nc(-c4c(O)cccc4F)c(F)cc23)C(C)C1 (stereo unspecified) + Cc1cccc(N(C)C(=O)C2C(O)CCN2c2nc(C)cc(C(F)(F)F)c2C#N)c1
7. CCCS(=O)(=O)Nc1ccc(F)c(C(=O)c2c[nH]c3ncc(-c4ccc(Cl)cc4)cc23)c1F + COC1C(OC(N)=O)C(O)C(Oc2ccc3c(O)c(NC(=O)c4ccc(O)c(CC=C(C)C)c4)c(=O)oc3c2C)OC1(C)C

1: 101; 2: 106; 3: 109; 4: 118; 5: 95.7; 6: 103; 7: 98.1
